meta.source: ChEMBL document CHEMBL1157539

# System: Plasmodium falciparum
# assayProtocol: GSK_TCMDC: Inhibition of Plasmodium falciparum 3D7 in whole erythrocytes, using parasite LDH activity as an index of growth.
# Format: functional, organism-based
# conditionParameters: Plasmodium falciparum, 3D7
Class boundaries, taken from values of XC50, are as follows: 1: < 0.7 µM; 2: ≥ 0.7 µM and < 0.9 µM; 3: ≥ 0.9 µM

{"columns": ["compound", "class"],
 "data": [
  ["Cc1cc(N2CCCCC2)nc2ccc(NC(=O)c3cccc([N+](=O)[O-])c3)cc12", 1],
  ["COc1cccc(CN2CCCN(Cc3cccc(NC(=O)c4ccc(Cl)c(Cl)c4)c3)CC2)c1", 3],
  ["C=CCn1c(SCC(=O)Nc2cc(Cl)ccc2Cl)nc2sc(C)cc2c1=O", 1],
  ["CC(C)(C)OC(=O)NCc1ccc(Nc2nnc(-c3cccc(C(=O)NCc4cc(C(F)(F)F)cc(C(F)(F)F)c4)c3)o2)cc1", 2],
  ["Cc1cc(C)cc(OCC(O)CN(CCN2CCOCC2)C(=O)Nc2ccc(Br)cc2)c1 (stereo not given)", 3],
  ["CC(C)(C)c1ccc(NC(=O)c2ccc(CN3CCCN(Cc4cccc(Cl)c4)CC3)cc2)cc1", 3],
  ["Nc1nc(N)c2c(ccc3c2cnn3Cc2cccnc2)n1", 1],
  ["Cc1cccc2nc(-c3cccc(-c4cccc(CN5CCC(CO)CC5)c4)c3)[nH]c12", 2],
  ["CC(C)(C)[C@@H](Nc1ccc(C#N)c2ccccc12)C(=O)NC1(Cc2ccc(O)cc2)CCCC1", 3],
  ["Cc1onc(-c2ccccc2)c1-c1nc(NCCC(c2ccccc2)c2ccccc2)no1", 2],
  ["N#Cc1ccc(CN2CCC(Oc3ccc(NC(=O)c4ccsc4)cc3Cl)C2)cc1 (stereo not given)", 1],
  ["C[C@@H](CC1CCCCC1)NCc1ccccc1O", 3],
  ["CO/C(=C\\C=C\\c1cc2cc(Cl)c(Cl)cc2[nH]1)C(=O)Nc1ccc(NCCN(C)C)nc1", 2],
  ["CCN(CC)C(=O)C(=O)c1c[nH]c2ccc(Cl)cc12", 1],
  ["Cc1nc(-c2ccc(-c3ccc(C(=O)Nc4ccc(C(C)C)c(OCCN(C)C)c4)cc3)c(C)c2)no1", 2],
  ["CC1CCC(NCc2ccc3c(CNC4CCC(C)CC4)c(O)ccc3c2O)CC1 (stereo not given)", 1],
  ["Cc1cc(NC2CCN(CC3CCCCC3)C2)nc(Nc2ccc(Br)cc2)n1 (stereo not given)", 1],
  ["COC(=O)c1ccc(CC(C)NCC(O)c2cccc(C(F)(F)F)c2)c(OC)c1 (stereo not given)", 2],
  ["Cc1cccc(Nc2nc3nonc3nc2Nc2cccc(Cl)c2Cl)c1C", 3],
  ["CCOC(=O)c1ccc(NC(=O)Nc2ccc(-c3cccc(-c4nc5ccccc5[nH]4)c3)cc2)cc1", 1],
  ["COc1ccc(Nc2nccc(N3CCC(NC(=O)c4cccc(C#N)c4)C3)n2)cc1 (stereo not given)", 2],
  ["CC(C)n1ncc2c3c(N)nc(N)nc3ccc21", 1],
  ["COc1cccc(C=NN=c2cc(C)[nH]c3ccccc23)c1", 3],
  ["CCN(CC)CCN(Cc1ccc(-c2ccc(C(F)(F)F)cc2)cc1)C(=O)Cn1c(CCc2cccc(F)c2F)nc(=O)c2cccnc21", 2],
  ["Cc1nn(C)cc1C(C)Nc1nncc(-c2ccc(C(F)(F)F)cc2)n1 (stereo not given)", 1],
  ["OC(CN1CCN(C2CCCCC2)CC1)Cn1c2ccccc2c2cc(Br)ccc21 (stereo not given)", 2],
  ["Cc1nc(C)c(-c2ccc(C(F)(F)F)cc2)c(O)c1Br", 1],
  ["CN1CCN(c2ccc(Nc3ncc([N+](=O)[O-])c(Nc4ccccc4O)n3)cc2)CC1", 2],
  ["Cc1cc2c(cc1C(F)(F)F)N(C(=O)Nc1cc(OCCN(C(C)C)C(C)C)cc(C(F)(F)F)c1)CC2", 1],
  ["CC(Cc1ccc(OCC(=O)NCC2CCN(CCc3cccc(Cl)c3)CC2)cc1)NCCc1cccc(Cl)c1 (stereo not given)", 1],
  ["Cc1nc(N)nc(N)c1-c1cccc(Cl)c1", 3],
  ["CS(=O)(=O)c1ccc2[nH]c(-c3cc(-c4cccc(F)c4)cnc3N)nc2c1", 3],
  ["CCc1ccc(C2=Nn3c(nnc3-c3cccs3)SC2)cc1", 3],
  ["CCCCn1c(-c2ccco2)nc2c(c(=O)c3ccccc3n2C)c1=O", 3],
  ["COc1ccc(Cn2c(Nc3cccc(C(F)(F)F)c3)nc3cc(C(=O)NCCN4CCCC4)ccc32)cc1Cl", 2],
  ["N#Cc1ccc(Cn2ccc3c4c(N)nc(N)nc4ccc32)cc1", 1]
]}
